# run description: Half life in C57BL/6J mouse at 20 mg/kg, iv measured up to 24 hrs by LC-MS/MS analysis
# Assay type: ADME, organism-based
# applied conditions: in vivo

>  <structure string>
c1ccc2c(c1)[nH]c1c(-c3c[nH]cn3)nccc12

>  <endpoint unit>
h

>  <half-life>
2.31

$$$$

---

# run description: Apparent volume of distribution in C57BL/6J mouse at 20 mg/kg, […] measured up to 24 hrs by LC-MS/MS analysis
# Assay type: ADME, organism-based
# applied conditions: in vivo, read-out: Vz

>  <structure string>
c1ccc2c(c1)[nH]c1c(-c3c[nH]cn3)nccc12

>  <endpoint unit>
L/kg

>  <Vd>
7.84

$$$$

---

# assayed target: Indoleamine 2,3-dioxygenase 1 (Homo sapiens, UniProt P14902)
# Sequence (P14902 whole entry): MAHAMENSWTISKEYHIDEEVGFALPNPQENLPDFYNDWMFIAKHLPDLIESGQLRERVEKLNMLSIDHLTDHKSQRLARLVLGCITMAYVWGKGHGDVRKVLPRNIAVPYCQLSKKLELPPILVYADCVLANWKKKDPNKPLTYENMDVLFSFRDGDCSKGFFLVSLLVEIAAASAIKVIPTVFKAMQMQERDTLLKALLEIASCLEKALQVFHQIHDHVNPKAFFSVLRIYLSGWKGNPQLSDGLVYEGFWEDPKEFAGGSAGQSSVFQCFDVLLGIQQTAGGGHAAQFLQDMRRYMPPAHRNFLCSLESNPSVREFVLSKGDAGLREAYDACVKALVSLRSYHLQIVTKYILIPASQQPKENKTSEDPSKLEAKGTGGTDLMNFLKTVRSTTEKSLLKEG
# run description: Inhibition of IDO1 (unknown origin) assessed as reduction in kynurenine production using L-tryptophan as substrate incubated for 1 hr by absorbance based microplate reader analysis
Measured IC50 by item
result type: IC50 (µM)

>  <structure string>
O=[N+]([O-])c1cccc(-c2nccc3c2[nH]c2ccccc23)c1

>  <result type>
IC50

>  <endpoint unit>
µM

>  <rel>
=

>  <reading>
8.28

$$$$
>  <structure string>
N#Cc1ccc(-c2nccc3c2[nH]c2ccccc23)cc1

>  <result type>
IC50

>  <endpoint unit>
µM

>  <rel>
>

>  <reading>
50

$$$$
>  <structure string>
Clc1cccc(-c2nccc3c2[nH]c2ccccc23)c1

>  <result type>
IC50

>  <endpoint unit>
µM

>  <rel>
>

>  <reading>
50

$$$$
>  <structure string>
c1csc(-c2nccc3c2[nH]c2ccccc23)c1

>  <result type>
IC50

>  <endpoint unit>
µM

>  <rel>
>

>  <reading>
50

$$$$
>  <structure string>
Clc1ccc(-c2nccc3c2[nH]c2ccccc23)cc1

>  <result type>
IC50

>  <endpoint unit>
µM

>  <rel>
=

>  <reading>
7.58

$$$$
>  <structure string>
N#Cc1cccc(-c2nccc3c2[nH]c2ccccc23)c1

>  <result type>
IC50

>  <endpoint unit>
µM

>  <rel>
>

>  <reading>
50

$$$$
>  <structure string>
c1ccc2c(c1)[nH]c1c(-c3c[nH]cn3)nccc12

>  <result type>
IC50

>  <endpoint unit>
µM

>  <rel>
=

>  <reading>
3.53

$$$$

---

# run description: MRT (0 to infinity) in C57BL/6J mouse at 20 mg/kg, ip measured up to 24 hrs by LC-MS/MS analysis
# Assay type: ADME, organism-based
# applied conditions: in vivo

>  <structure string>
c1ccc2c(c1)[nH]c1c(-c3c[nH]cn3)nccc12

>  <MRT inf, h>
1.04

$$$$

---

# run description: AUC (0 to infinity) in C57BL/6J mouse at 20 mg/kg, ip measured up to 24 hrs by LC-MS/MS analysis
# Format: ADME, organism-based
# Set-up: dose 20 mg/kg, time < 24 hrs, route ip
# applied conditions: in vivo
result type: AUC(0-inf) (ng·h/mL)

>  <structure string>
c1ccc2c(c1)[nH]c1c(-c3c[nH]cn3)nccc12

>  <reading>
4460

$$$$

---

# run description: MRT (0 to 24 hrs) in C57BL/6J mouse at 20 mg/kg, ip measured up to 24 hrs by LC-MS/MS analysis
# Assay type: ADME, organism-based
# applied conditions: in vivo
result type: MRT last at 24 h (h)

>  <structure string>
c1ccc2c(c1)[nH]c1c(-c3c[nH]cn3)nccc12

>  <result type>
MRT last at 24 h

>  <reading>
1.03

$$$$
